Quick reference: IC50 of the listed items.
- experiment.summary: Immunosuppressive activity against […] mouse CD4-positive T cell cells assessed as inhibition of CD3/CD28-induced cell proliferation after 72 hrs by FACS analysis
measurement.label: IC50 (µg/mL)

1. CC[C@@H]1/C=C(\C)C[C@H](C)C[C@H](OC)[C@H]2O[C@@](O)(C(=O)C(=O)N3CCCC[C@H]3C(=O)O[C@H](/C(C)=C/[C@@H]3CC[C@@H](O)[C@H](O)C3)[C@H](C)[C@@H](O)CC1=O)[C@H](C)C[C@@H]2OC 0.00327
2. CC[C@@H]1/C=C(\C)C[C@H](C)C[C@H](OC)[C@H]2O[C@@](O)(CC(=O)N3CCCC[C@H]3C(=O)O[C@H](/C(C)=C/[C@@H]3CC[C@@H](O)[C@H](O)C3)[C@H](C)[C@@H](O)CC1=O)[C@H](C)C[C@@H]2OC 0.258
3. CCC[C@@H]1/C=C(\C)C[C@H](C)C[C@H](OC)[C@H]2O[C@@](O)(CC(=O)N3CCCC[C@H]3C(=O)O[C@H](/C(C)=C/[C@@H]3CC[C@@H](O)[C@H](O)C3)[C@H](C)[C@@H](O)CC1=O)[C@H](C)C[C@@H]2OC 0.0459
4. CCC[C@@H]1/C=C(\C)C[C@H](C)C[C@H](OC)[C@H]2O[C@@](O)(CC(=O)N3CCCC[C@H]3C(=O)O[C@H](/C(C)=C/[C@@H]3CC[C@@H](O)[C@H](OC)C3)[C@H](C)[C@@H](O)CC1=O)[C@H](C)C[C@@H]2OC 0.0255

The values you see were collected from ChEMBL document CHEMBL4373698.
